Each entry below carries its recorded IC50.
System: subclones of RKO colon adenocarcinoma cells (RKOp27 or RKOp21) arrested by Ponasterone A
Assay: Alamar Blue cell viability assay, cell cycle specific mode of action: cells arrested by ectopic p27Kip1 induced by Ponasterone A versus proliferating cells
Format: cell-based
Settings: Homo sapiens, RKO p27 induced (arrested) cells, 10 μM Ponasterone A, 72 hours, value = class bound given in Table A, read-out: −logIC50 RKO p27 induced (arrested) (converted)

Example results:
INSERT INTO assay_data (molecule, parameter, value_measured) VALUES
  ('CCNC(=O)OC1CCc2c(sc(NC(=O)CCc3ccccc3OCC)c2C#N)C1 (centres unmarked) [Example 153]', 'IC50', '≥ 10 µM'),
  ('Cn1cc(CNC(=O)OC2CCc3c(sc(NC(=O)/C=C/c4cccnc4)c3C#N)C2)cn1 (centres unmarked) [Example 41]', 'IC50', '≥ 100 µM'),
  ('CC(CC(=O)Nc1sc2c(c1C#N)CCC(COC(=O)NCc1nccn1C)C2)c1ccccc1 (centres unmarked) [Example 311]', 'IC50', '≥ 10 µM'),
  ('N#Cc1c(NC(=O)/C=C/c2cccnc2)sc2c1CCC(OC(=O)NCCO)C2 (centres unmarked) [Example 23]', 'IC50', '≥ 100 µM'),
  ('N#Cc1c(NC(=O)/C=C/c2cccnc2)sc2c1CC[C@@H](COC(=O)N1CC(O)C1)C2 [Example 73b]', 'IC50', '≥ 100 µM');

Challenge: Return IC50 (reported value) for this molecule: N#Cc1c(NC(=O)/C=C/c2cccnc2)sc2c1CCC(OC(=O)N1CCCO1)C2 (centres unmarked) [Example 119]
Response given: ≥ 100 µM

Challenge: Please look at this molecule and report its IC50: N#Cc1c(NC(=O)/C=C/c2cccnc2)sc2c1CCC(COC(=O)NC1CCC1)C2 (centres unmarked) [Example 98]
Response given: ≥ 100 µM

Challenge: Complete the entry with IC50 for Cc1cc(CNC(=O)OCC2CCc3c(sc(NC(=O)CC(C)c4cccnc4)c3C#N)C2)on1 (centres unmarked) [Example 370]
Response given: ≥ 50.1 µM

###

System: subclones of RKO colon adenocarcinoma cells (RKOp27 or RKOp21) arrested by Ponasterone A
Assay: Alamar Blue cell viability assay, cell cycle specific mode of action: cells arrested by ectopic p27Kip1 induced by Ponasterone A versus proliferating cells
Assay type: cell-based
Conditions: Homo sapiens, RKO p27 induced (arrested) cells, 10 μM Ponasterone A, 72 hours, value = class bound given in Table A, read-out: −logIC50 RKO p27 induced (arrested) (converted)
Parameter: IC50

As a guide, the following entries are already answered.
INSERT INTO results (compound, target_or_test_system, value_measured) VALUES
  ('N#Cc1c(NC(=O)/C=C/c2cccnc2)sc2c1CC[C@@H](COC(=O)N1CCC[C@@H](O)C1)C2 [Example 87a]', 'subclones of RKO colon adenocarcinoma cells (RKOp27 or RKOp21) arrested by Ponasterone A', '≥ 100 µM'),
  ('Cc1cc(CNC(=O)OCC2CCc3c(sc(NC(=O)CCc4cccnc4)c3C#N)C2)on1 (centres unmarked)', 'subclones of RKO colon adenocarcinoma cells (RKOp27 or RKOp21) arrested by Ponasterone A', '≥ 100 µM'),
  ('CCOc1ccccc1CCC(=O)Nc1sc2c(c1C#N)CCC(OC(=O)NCc1cncn1C)C2 (centres unmarked)', 'subclones of RKO colon adenocarcinoma cells (RKOp27 or RKOp21) arrested by Ponasterone A', '≥ 10 µM');

Challenge: Please supply the value of reported IC50 for the item Cc1ccncc1/C=C/C(=O)Nc1sc2c(c1C#N)CCC(COC(=O)N1CC(O)C1)C2 (centres unmarked)
Response given: ≥ 100 µM

Challenge: Look up IC50 of CC(CC(=O)Nc1sc2c(c1C#N)CCC(COC(=O)N1CCCC1)C2)c1cccnc1 (centres unmarked) and report it.
Response given: ≥ 100 µM

Challenge: Output IC50 of COc1cccc(C(C)CC(=O)Nc2sc3c(c2C#N)CCC(COC(=O)NC(C)c2cccnc2)C3)c1 (centres unmarked)
Response given: ≥ 50.1 µM

Challenge: Give a short answer stating reported IC50 for COc1cccc(C(C)CC(=O)Nc2sc3c(c2C#N)CCC(OC(=O)NCc2conc2C)C3)c1 (centres unmarked) .
Response given: ≥ 100 µM

Challenge: Provide one value: measured IC50 of COCC1CCCN1C(=O)OCC1CCc2c(sc(NC(=O)/C=C/c3cccnc3)c2C#N)C1 (centres unmarked)
Response given: ≥ 100 µM

Challenge: // fetch IC50 given entry COC(=O)[C@@H]1CCCN1C(=O)OCC1CCc2c(sc(NC(=O)/C=C/c3cccnc3)c2C#N)C1 (some centres unmarked)
Response given: ≥ 100 µM

Challenge: State its IC50: COCCNC(=O)OC1CCc2c(sc(NC(=O)CCc3cccc(OC)c3)c2C#N)C1 (centres unmarked)
Response given: ≥ 100 µM

Challenge: # return recorded IC50 for input N#Cc1c(NC(=O)/C=C/c2cccnc2)sc2c1CCC(OC(=O)N1CC[C@H](O)C1)C2 (some centres unmarked)
Response given: ≥ 100 µM

Challenge: For the compound CC(CC(=O)Nc1sc2c(c1C#N)CCC(OC(=O)NCc1cccnc1)C2)c1ccccc1 (centres unmarked) , give its measured IC50 value.
Response given: ≥ 10 µM

Challenge: Return reported IC50. Input compound: CN(CC(O)CO)C(=O)OC1CCc2c(sc(NC(=O)/C=C/c3cccnc3)c2C#N)C1 (centres unmarked)
Response given: ≥ 100 µM

Challenge: Hello, please tell me recorded IC50 for this one: COc1cccc(C(C)CC(=O)Nc2sc3c(c2C#N)CCC(COC(=O)NCc2ccnn2C)C3)c1 (centres unmarked)
Response given: ≥ 50.1 µM

Challenge: Look up IC50 of CCOc1ccccc1CCC(=O)Nc1sc2c(c1C#N)CCC(OC(=O)NCc1ncc[nH]1)C2 (centres unmarked) and report it.
Response given: ≥ 10 µM

Challenge: Give IC50 for COc1cccc(CCC(=O)Nc2sc3c(c2C#N)CCC(COC(=O)NCc2ccccn2)C3)c1 (centres unmarked)
Response given: ≥ 100 µM

###

Overview of reported IC50 across a group of compounds:
System: subclones of RKO colon adenocarcinoma cells (RKOp27 or RKOp21) arrested by Ponasterone A
Test: Alamar Blue cell viability assay, cell cycle specific mode of action: cells arrested by ectopic p27Kip1 induced by Ponasterone A versus proliferating cells
Assay type: cell-based
Conditions: Homo sapiens, RKO p27 induced (arrested) cells, 10 μM Ponasterone A, 72 hours, value = class bound given in Table A, read-out: −logIC50 RKO p27 induced (arrested) (converted)

INSERT INTO measurements (compound, target_or_test_system, value_measured) VALUES
  ('CC(CC(=O)Nc1sc2c(c1C#N)CCC(OC(=O)OCc1cncs1)C2)c1ccccc1 (stereo not shown) [Example 375]', 'subclones of RKO colon adenocarcinoma cells (RKOp27 or RKOp21) arrested by Ponasterone A', '≥ 10 µM'),
  ('N#Cc1c(NC(=O)/C=C/c2cccnc2)sc2c1CCC(OC(=O)NCC1CC1)C2 (stereo not shown) [Example 109]', 'subclones of RKO colon adenocarcinoma cells (RKOp27 or RKOp21) arrested by Ponasterone A', '≥ 100 µM'),
  ('CCOc1ccccc1CCC(=O)Nc1sc2c(c1C#N)CCC(OC(=O)NCc1csc(C)n1)C2 (stereo not shown) [Example 254]', 'subclones of RKO colon adenocarcinoma cells (RKOp27 or RKOp21) arrested by Ponasterone A', '≥ 100 µM'),
  ('COc1cccc(C(C)CC(=O)Nc2sc3c(c2C#N)CCC(COC(=O)NC(C)c2ccnn2C)C3)c1 (stereo not shown) [Example 337]', 'subclones of RKO colon adenocarcinoma cells (RKOp27 or RKOp21) arrested by Ponasterone A', '≥ 50.1 µM'),
  ('CNC(=O)OC1CCc2c(sc(NC(=O)/C=C/c3cccnc3)c2C#N)C1 (stereo not shown) [Example 20]', 'subclones of RKO colon adenocarcinoma cells (RKOp27 or RKOp21) arrested by Ponasterone A', '≥ 100 µM'),
  ('COc1cccc(CCC(=O)Nc2sc3c(c2C#N)CCC(COC(=O)NCc2cnn(C)c2)C3)c1 (stereo not shown) [Example 239]', 'subclones of RKO colon adenocarcinoma cells (RKOp27 or RKOp21) arrested by Ponasterone A', '≥ 100 µM'),
  ('Cc1cc(CNC(=O)OCC2CCc3c(sc(NC(=O)/C=C/c4cccnc4)c3C#N)C2)no1 (stereo not shown) [Example 47]', 'subclones of RKO colon adenocarcinoma cells (RKOp27 or RKOp21) arrested by Ponasterone A', '≥ 100 µM'),
  ('Cc1ccncc1/C=C/C(=O)Nc1sc2c(c1C#N)CCC(COC(=O)N1CCC(O)CC1)C2 (stereo not shown) [Example 133]', 'subclones of RKO colon adenocarcinoma cells (RKOp27 or RKOp21) arrested by Ponasterone A', '≥ 100 µM'),
  ('CCOc1ccccc1/C=C/C(=O)Nc1sc2c(c1C#N)CCC(OC(=O)OCCOC)C2 (stereo not shown) [Example 11]', 'subclones of RKO colon adenocarcinoma cells (RKOp27 or RKOp21) arrested by Ponasterone A', '≥ 100 µM'),
  ('CCOc1ccccc1CCC(=O)Nc1sc2c(c1C#N)CCC(COC(=O)OCc1ccsn1)C2 (stereo not shown) [Example 202]', 'subclones of RKO colon adenocarcinoma cells (RKOp27 or RKOp21) arrested by Ponasterone A', '≥ 100 µM');

Challenge: Provide measured IC50 value, entry: CC(C)N(C)C(=O)OCC1CCc2c(sc(NC(=O)/C=C/c3cccnc3)c2C#N)C1 (stereo not shown) [Example 97]
Response given: ≥ 100 µM

Challenge: Identify measured IC50 associated with Cc1cc(CNC(=O)OCC2CCc3c(sc(NC(=O)CC(C)c4ccccc4)c3C#N)C2)n(C)n1 (stereo not shown) [Example 321]
Response given: ≥ 50.1 µM

Challenge: Hello, please tell me recorded IC50 for this one: N#Cc1c(NC(=O)/C=C/c2cccnc2)sc2c1CCC(OC(=O)N1CC[C@@H](O)C1)C2 (stereo partly shown) [Example 147]
Response given: ≥ 100 µM
